# maps each entry to its Post-emergence Test ECHCG, percentage damage to the plant (five-point scale)
system: Echinochloa crus-galli (ECHCG); assay: Post-emergence Test (glasshouse, percentage damage to the plant); type: in vivo; conditions: post-emergence spray, 1000 g/ha unless otherwise stated, evaluated after 13 days

Here is how some compounds turned out for Post-emergence Test ECHCG, percentage damage to the plant (five-point scale).
>>> measvalue("CCn1c(C)c(-c2ccc(OC)c(Cl)c2)c(=O)c(C(=O)O)c1-c1ccc(Cl)c(Cl)c1")
"3 (3=41-60%)"
>>> measvalue("CCn1c(C)c(-c2ccc(OC)cc2)c(=O)c(C(=O)O)c1-c1ccc(Cl)c(Cl)c1")
"4 (4=61-80%)"
>>> measvalue("CCn1c(C)c(-c2cc(F)cc(C#N)c2)c(=O)c(C(=O)O)c1-c1ccc(Cl)c(Cl)c1")
"2 (2=21-40%)"
>>> measvalue("CCn1c(C)c(-c2ccc(C(F)(F)F)cc2)c(=O)c(C(=O)O)c1-c1ccc(Cl)c(Cl)n1")
"3 (3=41-60%)"
>>> measvalue("CCn1c(C)c(-c2cc(F)cc(F)c2)c(=O)c(C(=O)O)c1-c1ccc(Cl)c(Cl)c1")
"1 (1=0-20%)"
>>> measvalue("CCn1c(C)c(-c2ccnc(OC)c2)c(=O)c(C(=O)O)c1-c1ccc(Cl)c(Cl)c1")
"3 (3=41-60%)"

Data request: What value of measured Post-emergence Test ECHCG, percentage damage to the plant (five-point scale) is listed for CCn1c(C)c(-c2ccn(C)c(=O)c2)c(=O)c(C(=O)O)c1-c1ccc(Cl)c(Cl)c1 ?
Data returned: 1 (1=0-20%)

Data request: Quick one: Post-emergence Test ECHCG, percentage damage to the plant (five-point scale) for CCn1c(C)c(-c2ccnnc2)c(=O)c(C(=O)O)c1-c1ccc(Cl)cc1 ?
Data returned: 0
